Every entry's value here was drawn from paper PMC4977651.

Listed below: p-ACC values for each entry.
System: acetyl-coA carboxylase (phospho-Ser79)
Assay: AMPK activation, western blot of phospho-acetyl-coA carboxylase in MDBK cells
Format: cell-based, Bos taurus
Conditions: Experiment 3, 18 hours, band intensity
READOUT TYPE: p-ACC

# COMPOUND, READOUT TYPE, ENDPOINT RESULT
rows = [
    ("NC(N)=NC(N)=NCc1ccccc1", "p-ACC", 770),
    ("CC(C)N=C(N)N=C(N)NC(C)C", "p-ACC", 64.6),
    ("NC(N)=NC(N)=NCCc1ccc(Cl)cc1", "p-ACC", 483),
    ("[H]/N=C(\\N/C(=N/[H])Nc1ccc(Cl)cc1)NC(C)C [proguanil, reference compound]", "p-ACC", 91.3),
    ("[H]/N=C(/N)N/C(=N/[H])NCCc1ccccc1 [phenformin, reference compound]", "p-ACC", 404),
    ("CC(C)N=C(N)N=C(N)N", "p-ACC", 641),
    ("N=C(N)NC(N)=Nc1ccccc1 [compound 2, phenyl biguanide]", "p-ACC", 59.9),
]

###

Biological target: bovine heart mitochondrial membranes (complex I) (Bos taurus, UniProt P03887+P03898+P17694+P42026)
Sequence (P42026 38-216): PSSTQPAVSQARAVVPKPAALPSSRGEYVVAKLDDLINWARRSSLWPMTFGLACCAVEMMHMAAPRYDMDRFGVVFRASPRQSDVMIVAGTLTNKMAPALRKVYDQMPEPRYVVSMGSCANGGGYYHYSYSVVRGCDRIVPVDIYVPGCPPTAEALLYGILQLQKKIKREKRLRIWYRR
Sequence (P17694 34-463): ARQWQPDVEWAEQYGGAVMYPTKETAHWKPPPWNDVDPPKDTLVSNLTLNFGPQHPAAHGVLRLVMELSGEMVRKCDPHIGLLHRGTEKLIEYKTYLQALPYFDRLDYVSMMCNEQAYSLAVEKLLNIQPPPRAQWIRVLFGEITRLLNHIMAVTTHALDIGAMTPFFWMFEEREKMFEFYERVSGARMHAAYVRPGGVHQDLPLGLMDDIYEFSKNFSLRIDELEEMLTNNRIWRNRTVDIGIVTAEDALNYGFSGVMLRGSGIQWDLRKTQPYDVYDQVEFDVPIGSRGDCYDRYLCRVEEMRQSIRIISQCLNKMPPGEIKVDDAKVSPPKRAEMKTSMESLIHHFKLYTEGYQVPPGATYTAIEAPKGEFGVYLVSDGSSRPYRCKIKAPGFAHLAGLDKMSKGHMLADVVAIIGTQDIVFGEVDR
Sequence (P03887 whole entry): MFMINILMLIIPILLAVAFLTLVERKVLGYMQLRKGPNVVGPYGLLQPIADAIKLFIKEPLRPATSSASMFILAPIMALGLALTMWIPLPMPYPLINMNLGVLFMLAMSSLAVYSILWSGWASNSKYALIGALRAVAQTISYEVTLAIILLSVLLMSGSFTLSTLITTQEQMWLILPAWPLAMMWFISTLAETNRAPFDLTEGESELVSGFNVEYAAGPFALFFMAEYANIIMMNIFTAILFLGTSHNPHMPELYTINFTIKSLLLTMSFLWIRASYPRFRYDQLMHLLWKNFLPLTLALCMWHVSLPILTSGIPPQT
Sequence (P03898 whole entry): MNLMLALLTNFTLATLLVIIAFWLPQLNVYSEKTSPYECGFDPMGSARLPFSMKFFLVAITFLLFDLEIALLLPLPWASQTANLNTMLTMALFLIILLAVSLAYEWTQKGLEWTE
Test: NADH:O2 oxidoreduction by bovine heart mitochondrial membranes (complexes I-III-IV)
Assay type: biochemical
Details: bovine heart mitochondrial membranes; inhibitor 0.12 mM; read-out: average % (rate, % of no-inhibitor control)
READOUT TYPE: remaining activity at 120 µM (%)

# COMPOUND STRUCTURE, UOM, ENDPOINT RESULT
records = [
    ("NC(N)=NC(N)=NCc1ccccc1", "%", 76.2),
    ("CC(C)N=C(N)N=C(N)NC(C)C", "%", 67.1),
    ("N=C(N)N=C(N)Nc1ccccc1", "%", 74.7),
    ("NC(N)=NC(N)=NCCc1ccc(Cl)cc1", "%", 66.8),
]

###

Test system: HepG2 cells
Test: Rotenone-sensitive oxygen consumption rate in intact HepG2 cells
Assay type: cell-based, human
Settings: HEPG2 cells; biguanide at IC50/10; OCR normalized to OCR immediately prior to biguanide addition
READOUT TYPE: rotenone sensitive OCR after 6 hours of biguanide exposure, average

# MOLECULE, ENDPOINT RESULT
records = [
    ("CC(C)N=C(N)N=C(N)N [compound 4]", 0.43),
    ("NC(N)=NC(N)=NCc1ccccc1 [compound 3, 2-benzyl-1-(diaminomethylidene)guanidine]", 1.29),
    ("NC(N)=NC(N)=NCCc1ccc(Cl)cc1 [compound 1]", 4.59),
    ("[H]/N=C(\\N/C(=N/[H])Nc1ccc(Cl)cc1)NC(C)C [proguanil, reference compound]", 95.98),
    ("N=C(N)NC(N)=Nc1ccccc1 [compound 2, phenyl biguanide]", 94.14),
    ("CC(C)N=C(N)N=C(N)NC(C)C [compound 5]", 91.14),
    ("[H]/N=C(/N)N/C(=N/[H])NCCc1ccccc1 [phenformin, reference compound]", 1.79),
]

###

Quick reference: IC50 of the listed items.
Target: bovine heart mitochondrial membranes (complex I) (Bos taurus, UniProt P03887+P03898+P17694+P42026)
Assay: NADH:O2 oxidoreduction by bovine heart mitochondrial membranes (complexes I-III-IV)
Assay type: biochemical
Settings: read-out: IC50 (best fit value); sample given as Bovine heart mitochondrial membranes; Prism log(inhibitor) vs. response variable slope fit (four parameters), Bottom 0, Top 100

# COMPOUND, UOM, IC50
data = [
    ("[H]/N=C(\\N/C(=N/[H])Nc1ccc(Cl)cc1)NC(C)C [proguanil, reference compound]", "µM", 16.3),
    ("N=C(N)NC(N)=Nc1ccccc1 [compound 2, phenyl biguanide]", "µM", 421),
]

###

Biological target: mouse heart mitochondrial membranes (complex I) (Mus musculus, UniProt P03888+P03899+Q91WD5+Q9DC70)
Sequence (P03899 whole entry): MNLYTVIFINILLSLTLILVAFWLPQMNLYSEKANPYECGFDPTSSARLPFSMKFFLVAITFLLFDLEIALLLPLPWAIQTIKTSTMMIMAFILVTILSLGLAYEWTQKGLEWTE
Sequence (P03888 whole entry): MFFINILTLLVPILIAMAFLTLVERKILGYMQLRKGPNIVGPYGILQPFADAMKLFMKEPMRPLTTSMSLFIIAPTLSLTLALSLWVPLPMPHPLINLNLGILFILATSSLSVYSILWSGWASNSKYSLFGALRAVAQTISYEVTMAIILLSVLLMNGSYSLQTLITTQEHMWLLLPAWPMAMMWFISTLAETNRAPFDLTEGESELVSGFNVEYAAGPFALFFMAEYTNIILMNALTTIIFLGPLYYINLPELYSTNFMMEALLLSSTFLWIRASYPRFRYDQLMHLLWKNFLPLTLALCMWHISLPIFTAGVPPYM
Sequence (Q9DC70 36-224): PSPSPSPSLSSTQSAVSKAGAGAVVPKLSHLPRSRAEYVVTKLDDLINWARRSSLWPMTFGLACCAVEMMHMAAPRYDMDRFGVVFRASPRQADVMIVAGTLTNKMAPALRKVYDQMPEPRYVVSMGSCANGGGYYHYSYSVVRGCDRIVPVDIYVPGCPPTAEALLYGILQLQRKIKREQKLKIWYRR
Sequence (Q91WD5 34-463): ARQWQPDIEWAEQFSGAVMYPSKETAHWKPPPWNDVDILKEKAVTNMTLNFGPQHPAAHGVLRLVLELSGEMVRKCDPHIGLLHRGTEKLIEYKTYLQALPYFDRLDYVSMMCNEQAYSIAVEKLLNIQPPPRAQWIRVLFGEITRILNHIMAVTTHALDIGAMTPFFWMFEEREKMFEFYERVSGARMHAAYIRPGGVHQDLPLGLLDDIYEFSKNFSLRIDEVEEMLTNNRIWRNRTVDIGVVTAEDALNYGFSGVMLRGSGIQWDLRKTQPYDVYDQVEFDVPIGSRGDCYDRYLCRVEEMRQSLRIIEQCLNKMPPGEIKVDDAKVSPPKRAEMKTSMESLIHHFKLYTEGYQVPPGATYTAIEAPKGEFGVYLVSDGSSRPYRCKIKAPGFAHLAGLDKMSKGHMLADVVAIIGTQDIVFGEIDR
Assay: NADH:O2 oxidoreduction by mouse heart mitochondrial membranes
Format: biochemical
Conditions: read-out: IC50 (best fit value), Prism variable slope fit, Bottom 0, Top 100
Procedure: Complex I and mitochondrial membranes were prepared from Bos taurus (bovine) heart. Intact mitochondria were isolated from rat liver and mouse heart and liver. […] Assays were performed at 32 °C in a SpectraMax 96-well plate reader. […] Catalysis was initiated by addition of NADH and maximal rates determined by linear regression. […] Succinate:O2 oxidoreduction was measured using 40 μg mL^−1 membranes in 5 mM succinate in 10 mM Tris-HCl (pH 7.4) as described previously. […]
IC50 listing for selected compounds.

# COMPOUND, IC50 (µM)
data = [
    ("[H]/N=C(\\N/C(=N/[H])Nc1ccc(Cl)cc1)NC(C)C [proguanil, reference compound]", 11),
    ("N=C(N)NC(N)=Nc1ccccc1 [compound 2, phenyl biguanide]", 883),
    ("[H]/N=C(/N)N/C(=N/[H])NCCc1ccccc1 [phenformin, reference compound]", 801),
]

###

Tested on: acetyl-coA carboxylase (phospho-Ser79)
Assay: AMPK activation, western blot of phospho-acetyl-coA carboxylase in MDBK cells
Type: cell-based, Bos taurus
Conditions: Experiment 3, 18 hours
Quick rule: p-ACC / AMPK beta normalised to control of at least 6 means y, below that means n.

# MOLECULE, LABEL CLASS
rows = [
    ("CC(C)N=C(N)N=C(N)N", "y"),
    ("[H]/N=C(\\N/C(=N/[H])Nc1ccc(Cl)cc1)NC(C)C [proguanil, reference compound]", "n"),
    ("NC(N)=NC(N)=NCc1ccccc1", "y"),
    ("NC(N)=NC(N)=NCCc1ccc(Cl)cc1", "y"),
    ("[H]/N=C(/N)N/C(=N/[H])NCCc1ccccc1 [phenformin, reference compound]", "n"),
    ("CC(C)N=C(N)N=C(N)NC(C)C", "n"),
    ("N=C(N)NC(N)=Nc1ccccc1 [compound 2, phenyl biguanide]", "n"),
]

###

System: HepG2 cells
Assay: Rotenone-sensitive oxygen consumption rate in intact HepG2 cells
Format: cell-based, human
Conditions: intact HepG2 cells, biguanide at IC50/10, monitored for 6 h
READOUT TYPE: inhibition of rotenone-sensitive respiration (in words)

# COMPOUND, ENDPOINT RESULT
data = [
    ("CC(C)N=C(N)N=C(N)NC(C)C", "do not"),
    ("NC(N)=NC(N)=NCCc1ccc(Cl)cc1", "inhibit respiration"),
    ("NC(N)=NC(N)=NCc1ccccc1", "inhibit respiration"),
    ("N=C(N)NC(N)=Nc1ccccc1 [compound 2, phenyl biguanide]", "do not"),
    ("CC(C)N=C(N)N=C(N)N", "inhibit respiration"),
]

###

Biological target: isolated bovine heart complex I (Bos taurus, UniProt P03887+P03898+P17694+P42026)
Sequence (P42026 38-216): as the sequence (P42026 38-216) above
Sequence (P17694 34-463): as the sequence (P17694 34-463) above
Sequence (P03898 whole entry): as the sequence (P03898 whole entry) above
Sequence (P03887 whole entry): as the sequence (P03887 whole entry) above
Assay: NADH:decylubiquinone oxidoreduction by isolated complex I
Assay type: biochemical
Settings: bovine heart purified mitochondrial complex I; log of IC50 in mM; Prism fit
READOUT TYPE: LogIC50 (best fit value)

# MOLECULE, TARGET OF ASSAY, READOUT TYPE, ENDPOINT RESULT
data = [
    ("N=C(N)NC(N)=Nc1ccccc1 [compound 2, phenyl biguanide]", "isolated bovine heart complex I (Bos taurus, UniProt P03887+P03898+P17694+P42026)", "LogIC50 (best fit value)", -0.3388),
    ("NC(N)=NC(N)=NCCc1ccc(Cl)cc1", "isolated bovine heart complex I (Bos taurus, UniProt P03887+P03898+P17694+P42026)", "LogIC50 (best fit value)", -0.7098),
    ("NC(N)=NC(N)=NCc1ccccc1", "isolated bovine heart complex I (Bos taurus, UniProt P03887+P03898+P17694+P42026)", "LogIC50 (best fit value)", -0.2463),
    ("CC(C)N=C(N)N=C(N)N", "isolated bovine heart complex I (Bos taurus, UniProt P03887+P03898+P17694+P42026)", "LogIC50 (best fit value)", 0.8297),
    ("CC(C)N=C(N)N=C(N)NC(C)C", "isolated bovine heart complex I (Bos taurus, UniProt P03887+P03898+P17694+P42026)", "LogIC50 (best fit value)", -0.609),
]

###

System: acetyl-coA carboxylase (phospho-Ser79)
Experiment: AMPK activation, western blot of phospho-acetyl-coA carboxylase in MDBK cells
Assay type: cell-based, Bos taurus
Settings: Experiment 2, 18 hours
READOUT TYPE: p-ACC / AMPK beta normalised to control

# MOLECULE, ENDPOINT RESULT
data = [
    ("NC(N)=NC(N)=NCc1ccccc1", 14.32),
    ("[H]/N=C(\\N/C(=N/[H])Nc1ccc(Cl)cc1)NC(C)C [proguanil, reference compound]", 1.97),
    ("N=C(N)NC(N)=Nc1ccccc1 [compound 2, phenyl biguanide]", 1.36),
    ("CC(C)N=C(N)N=C(N)N", 16.42),
    ("NC(N)=NC(N)=NCCc1ccc(Cl)cc1", 12.57),
    ("[H]/N=C(/N)N/C(=N/[H])NCCc1ccccc1 [phenformin, reference compound]", 9.93),
    ("CC(C)N=C(N)N=C(N)NC(C)C", 1.44),
]
